Test system: KB
PROTOCOL_TEXT: Cytotoxicity against human KB cells by sulforhodamine B assay
Assay type: functional
TEST_CONTEXT: read-out: ED50 (the source's name)
QUANTITY_KIND: log10(EC50) (log10 of the value in µg/mL)
Friendly reminder: values = log10 of EC50, unit µg/mL.

Below are worked cases with known answers.
{"COMPOUND": "CC[C@]1(O)C[C@H]2CN(CCc3c([nH]c4ccccc34)[C@@](C(=O)OC)(c3cc4c(cc3OC)N(C=O)[C@H]3[C@@](O)(C(=O)OC)[C@H](OC(C)=O)[C@]5(CC)C=CCN6CC[C@]43[C@@H]65)C2)C1", "log10(EC50)": -1.82}
{"COMPOUND": "CCC1=C(O)c2c(oc(-c3cccc4ccccc34)cc2=O)C(CC)(CC)C1=O", "log10(EC50)": -0.22}
{"COMPOUND": "CC1=C(O)c2c(oc(-c3ccc(C)cc3)cc2=O)C(C)(C)C1=O", "log10(EC50)": 1.35}
{"COMPOUND": "CC1=C(O)c2c(oc(-c3cc(C)cc(C)c3)cc2=O)C(C)(C)C1=O", "log10(EC50)": 1.72}

Return reported log10(EC50) values for all items listed beneath this line.
1. CCCC1=C(OC)C(CCC)(CCC)C2OC(c3ccccc3)=CC(=O)C2=C1O (configuration not stated)
2. CC1=C(O)c2c(oc(-c3cccc4ccccc34)cc2=O)C(C)(C)C1=O

[0.93, -0.29]

// batch mode: one log10(EC50) value per listed entry
1. CCC1=C(O)c2c(oc(-c3cc4ccccc4c4ccccc34)cc2=O)C(CC)(CC)C1=O
2. CCCC1=C(O)c2c(oc(-c3ccccc3)cc2=O)C(CCC)(CCC)C1=O
3. CCc1ccc(-c2cc(=O)c3c(o2)C(C)(C)C(=O)C(C)=C3O)cc1

0.70
0.60
1.30

Hi team, please reply with log10(EC50) for each item in this list.
1. CCC1=C(OC)C(CC)(CC)C2OC(c3ccccc3)=CC(=O)C2=C1O (configuration not stated)
2. CCC1=C(O)c2c(oc(-c3ccccc3C)cc2=O)C(CC)(CC)C1=O
3. CC1=C(O)c2c(oc(-c3ccccc3C)cc2=O)C(C)(C)C1=O

1: 1.30; 2: 1.26; 3: 1.57

Using the record for CCC1=C(O)c2c(oc(-c3ccc(CC)cc3)cc2=O)C(CC)(CC)C1=O , state its measured log10(EC50).
0.90
